- TESTED_ON: catalytic domain of human MMP9 (human, UniProt P14780 107-444, limits assumed)
- Sequence (P14780 107-444 limits assumed): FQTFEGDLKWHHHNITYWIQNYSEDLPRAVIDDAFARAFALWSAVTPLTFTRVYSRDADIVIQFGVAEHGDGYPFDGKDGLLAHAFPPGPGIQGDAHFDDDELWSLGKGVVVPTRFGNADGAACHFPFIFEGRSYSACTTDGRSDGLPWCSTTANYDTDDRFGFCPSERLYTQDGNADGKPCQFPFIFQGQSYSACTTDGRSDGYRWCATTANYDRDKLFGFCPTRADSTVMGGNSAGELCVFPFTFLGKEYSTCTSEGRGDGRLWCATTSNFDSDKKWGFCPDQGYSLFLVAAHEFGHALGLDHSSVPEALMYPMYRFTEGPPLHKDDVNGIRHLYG
- TEST: cell-based or functional assay
Lab note: anything with MMP9 IC50 below 1 nM is marked yes; values at 1 nM or higher are marked no.

{"columns": ["BINDER", "ASSIGNED_CATEGORY"],
 "data": [
  ["TIMP-3 mutein T63N, K65T (other) CTCSPSHPQDAFCNSDIVIRAKVVGKKLVKEGPFGTLVYNITQMKMYRGFTKMPHVQYIHTEASESLCGLKLEVNKYQYLLTGRVYDGKMYTGLCNFVERWDQLTLSQRKGLNYRYHLGCNCKIKSCYYLPCFVTSKNECLWTDMLSNFGYPGYQSKHYACIRQKGGYCSWYRGWAPPDKSIINATDP", "yes"],
  ["TIMP-3 mutein P56N, G58T (other) CTCSPSHPQDAFCNSDIVIRAKVVGKKLVKEGNFTTLVYTIKQMKMYRGFTKMPHVQYIHTEASESLCGLKLEVNKYQYLLTGRVYDGKMYTGLCNFVERWDQLTLSQRKGLNYRYHLGCNCKIKSCYYLPCFVTSKNECLWTDMLSNFGYPGYQSKHYACIRQKGGYCSWYRGWAPPDKSIINATDP", "no"],
  ["TIMP-3 mutein F57N (other) CTCSPSHPQDAFCNSDIVIRAKVVGKKLVKEGPNGTLVYTIKQMKMYRGFTKMPHVQYIHTEASESLCGLKLEVNKYQYLLTGRVYDGKMYTGLCNFVERWDQLTLSQRKGLNYRYHLGCNCKIKSCYYLPCFVTSKNECLWTDMLSNFGYPGYQSKHYACIRQKGGYCSWYRGWAPPDKSIINATDP", "no"],
  ["TIMP-3 mutein K45S, F57N (other) CTCSPSHPQDAFCNSDIVIRASVVGKKLVKEGPNGTLVYTIKQMKMYRGFTKMPHVQYIHTEASESLCGLKLEVNKYQYLLTGRVYDGKMYTGLCNFVERWDQLTLSQRKGLNYRYHLGCNCKIKSCYYLPCFVTSKNECLWTDMLSNFGYPGYQSKHYACIRQKGGYCSWYRGWAPPDKSIINATDP", "no"]
]}
